Task for the reader: assign each of the following compounds its reported inhibition at 10 µM.
TARGET OR TEST SYSTEM: IGF-1R (Homo sapiens, UniProt P08069)
Construct: purchased Upstate Co. 14-465
Sequence (P08069 959-1367 limits assumed): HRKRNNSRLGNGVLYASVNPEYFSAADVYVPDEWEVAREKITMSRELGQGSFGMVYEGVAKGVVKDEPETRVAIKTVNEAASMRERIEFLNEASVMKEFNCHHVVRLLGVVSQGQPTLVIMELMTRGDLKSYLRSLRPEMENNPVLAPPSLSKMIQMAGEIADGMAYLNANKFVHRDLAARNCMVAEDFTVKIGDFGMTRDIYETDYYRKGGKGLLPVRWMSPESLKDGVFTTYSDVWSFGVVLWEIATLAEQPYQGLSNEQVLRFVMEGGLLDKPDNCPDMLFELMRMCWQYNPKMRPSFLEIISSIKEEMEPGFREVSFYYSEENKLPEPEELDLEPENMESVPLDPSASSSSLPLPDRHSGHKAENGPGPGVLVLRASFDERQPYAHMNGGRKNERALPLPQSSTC
EXPERIMENT: IGF-1R inhibitory activity (kinase reaction, time-resolved fluoroimmunoassay)
Assay type: biochemical
CONDITION PARAMETERS: IGF-1R active recombinant enzyme, test compound 10 μmol/L
Method: The IGF-1R inhibitory activity was measured in the following manner. As IGF-1R, active recombinant enzyme (Catalog No. 14-465) purchased from Upstate Co., was used. […] 4 times, then reacted with europium-labeled anti-phosphotyrosine antibody, further washed with TBS-T 4 times and then, measured with time-resolved fluoroimmunoassay (excitation wavelength 340 nm, measuring wavelength 615 nm). […]
Answers are plain numbers, in %.

Completed entries (count: 3):
CC(=O)Nc1ccccc1/C=C/c1n[nH]c2ccccc12 [Compound 9]: 74.3
OCCc1nc(-c2ccccc2/C=C/c2n[nH]c3ccccc23)no1 [Compound 181]: 98.9
O=C(Nc1ccccc1/C=C/c1n[nH]c2ccccc12)C1CCCCC1 [Compound 23]: 95.4

Asked: Consider the compound shown here: Cc1ccsc1C(=O)Nc1cc(OCCN2CCOCC2)ccc1/C=C/c1n[nH]c2ccccc12 [Compound 251] What is its recorded inhibition at 10 µM?
Given back: 102

* * *

TARGET OR TEST SYSTEM: IGF-1R (Homo sapiens)
Construct: purchased Upstate Co. 14-465
EXPERIMENT: IGF-1R inhibitory activity (kinase reaction, time-resolved fluoroimmunoassay)
Format: biochemical
CONDITION PARAMETERS: IGF-1R active recombinant enzyme, test compound 10 μmol/L
Experimental: The IGF-1R inhibitory activity was measured in the following manner. As IGF-1R, active recombinant enzyme (Catalog No. 14-465) purchased from Upstate Co., was used. […] 4 times, then reacted with europium-labeled anti-phosphotyrosine antibody, further washed with TBS-T 4 times and then, measured with time-resolved fluoroimmunoassay (excitation wavelength 340 nm, measuring wavelength 615 nm). […]
MEASUREMENT NAME: inhibition at 10 µM (%)
Answers are plain numbers, in %.

Completed entries (count: 3):
Cc1ccsc1C(=O)Nc1ccc(N2CCN(C)CC2)cc1/C=C/c1n[nH]c2ccccc12: 100
O=C(Nc1ccccc1/C=C/c1n[nH]c2ccccc12)c1ccc([N+](=O)[O-])s1: 100
O=C1CCC(=O)N1c1ccccc1/C=C/c1n[nH]c2ccccc12: 86.7

Record inhibition at 10 µM for all entries; do not skip any.
1. COc1c(OCCCN2CCNC(=O)C2)ccc(/C=C/c2n[nH]c3ccccc23)c1NC(=O)c1sccc1C
2. O=C(Nc1ccccc1)c1ccccc1/C=C/c1n[nH]c2ccccc12

Given back:
1: 105; 2: 90.1

* * *

TARGET OR TEST SYSTEM: IGF-1R (Homo sapiens)
Construct: purchased Upstate Co. 14-465
EXPERIMENT: IGF-1R inhibitory activity (kinase reaction, time-resolved fluoroimmunoassay)
Format: biochemical
CONDITION PARAMETERS: IGF-1R active recombinant enzyme, test compound 10 μmol/L
Counter-ions that a name gives are not always drawn.
Task for the reader: assign each of the following molecules its reported inhibition at 10 µM.
Give bare numbers, in %.

Cc1ccsc1C(=O)Nc1cc(C(=O)N2C[C@@H](C)O[C@@H](C)C2)ccc1/C=C/c1n[nH]c2ccccc12 [Compound 223, hydrochloride]: 101
Cc1ccsc1C(=O)Nc1cc(CN2CCN(C[C@H](O)CO)CC2)ccc1/C=C/c1n[nH]c2ccccc12 [Compound 302]: 101
Cc1ccsc1C(=O)Nc1cc(CN2CCC(N3CCOCC3)CC2)ccc1/C=C/c1n[nH]c2ccccc12 [Compound 296]: 99.9

Now let's try a different one.
Asked: Consider the molecule shown here: Cc1ccsc1C(=O)Nc1cc(C(=O)N(C)CCO)ccc1/C=C/c1n[nH]c2ccccc12 [Compound 327] What is its recorded inhibition at 10 µM?
Given back: 101

The measured values listed here are drawn from patent US7605272B2.
